Tested on: CCRF-CEM
Test: Cytotoxicity against human CEM cells by CellTiter 96 non-radioactive cell proliferation colorimetric assay
Assay type: cell-based
Conditions: ccrf-cem
ASSAY METRIC: CC50 (µM)
Answers are plain numbers, in µM.

Observe how each entry below is paired with its result.
CN(C1CCCC1)S(=O)(=O)c1ccc2c(c1)C(=O)N(c1ccc(F)c(F)c1)CC2 36
O=C1c2cc(S(=O)(=O)NC3CCCC3)ccc2CCCN1c1ccc(F)c(F)c1 50.6

Let's switch to this compound now.
// query Which value of CC50 has been reported for `O=C(Nc1ccc(F)c(F)c1)c1cc(S(=O)(=O)NC2CC2)ccc1F` in the records?
// result 13.6
